- system_under_test: purified human Factor XIa (Homo sapiens)
- Construct: purchased Haematologic Technologies
- Sequence (P03951 388-625 limits assumed): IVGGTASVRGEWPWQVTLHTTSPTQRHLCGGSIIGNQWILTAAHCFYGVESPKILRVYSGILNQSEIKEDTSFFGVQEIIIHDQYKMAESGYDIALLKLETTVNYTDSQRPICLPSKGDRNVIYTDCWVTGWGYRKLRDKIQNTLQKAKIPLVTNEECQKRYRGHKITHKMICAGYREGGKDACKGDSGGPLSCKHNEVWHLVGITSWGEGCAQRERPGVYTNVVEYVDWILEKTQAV
- Sequence (P03951 19-387 partner limits assumed): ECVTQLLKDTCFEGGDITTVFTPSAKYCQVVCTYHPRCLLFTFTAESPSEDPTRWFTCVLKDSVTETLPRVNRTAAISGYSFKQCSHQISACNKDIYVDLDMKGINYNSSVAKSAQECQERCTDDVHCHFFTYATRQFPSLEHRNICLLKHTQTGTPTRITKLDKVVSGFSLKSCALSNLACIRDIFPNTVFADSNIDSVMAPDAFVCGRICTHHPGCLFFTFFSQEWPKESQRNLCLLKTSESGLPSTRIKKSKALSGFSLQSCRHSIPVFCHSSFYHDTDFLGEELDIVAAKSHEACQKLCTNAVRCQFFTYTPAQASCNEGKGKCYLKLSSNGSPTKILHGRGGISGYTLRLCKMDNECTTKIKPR
- assay_name: Factor XIa enzyme inhibition assay (chromogenic substrate S-2366)
- Format: biochemical
- run_parameters: substrate S-2366, pH 7.4
Assign labels as follows, please: criterion met for Ki below 90 nM; criterion not met for Ki equal to or exceeding 90 nM.

{"compound": "C[C@@H]1CCC[C@H](n2cnc(-c3cc(Cl)ccc3-n3cc(C(F)(F)F)nn3)cc2=O)C(=O)NCc2ccccc2NC1=O [Example 11]", "group": "criterion met"}
{"compound": "C[C@@H]1CCC[C@H](n2cnc(-c3cc(Cl)ccc3-n3cc(C(F)F)nn3)cc2=O)C(=O)NCc2ccccc2NC1=O [Example 15]", "group": "criterion met"}
{"compound": "Cc1c(C(=O)N[C@H]2CCC[C@@H](C)C(=O)Nc3ccccc3CNC2=O)ncn1-c1cccc(Cl)c1F [Example 24]", "group": "criterion not met"}
{"compound": "C[C@@H]1CCC[C@H](n2cnc(-c3c(-n4cc(Cl)nn4)ccc(Cl)c3F)cc2=O)C(=O)NCc2ccccc2NC1=O [Example 12]", "group": "criterion met"}
{"compound": "CC1NC(=O)[C@@H](N2CCC(c3cc(Cl)ccc3-n3cc(C(F)(F)F)nn3)=CC2=O)CCC[C@@H](C)C(=O)Nc2ccccc21 (single isomer, unassigned; diastereomer a) [Example 21]", "group": "criterion not met"}
{"compound": "Cc1c(C(=O)N[C@H]2CCCCCC(=O)Nc3cc(C(=O)O)ccc3NC2=O)cnn1-c1cccc(Cl)c1F [Example 26]", "group": "criterion not met"}
